Test system: MALME-3M melanoma
method notes: NCI-60 one-dose screen, 48 h
study conditions: 10 µM unless noted
This is part of a sample that, as a whole, favours compounds with a hit. Of some 83,000 tested, about 20% had one in any assay. The source made the active and inactive calls. The calls were made as follows: active = growth percent below 10; inactive = the rest.
Write down one outcome, taken from active, inactive

input: Which outcome was assigned to CN1C(=O)N(C)C2Nn3c(s/c(=C4\C(=O)N(CCc5ccccc5)c5ccccc54)c3=O)=NC21 (stereo not given) in this test?
output: inactive

input: Another molecule: NCCOc1ccccc1/C=C1\c2ccccc2-c2ccc([N+](=O)[O-])cc21
output: inactive

input: Can you handle Cc1cc2c(c(C)c1Cl)C(=O)/C(=C/c1ccco1)O2 next?
output: inactive

input: Would you mind doing CC(=Nc1ccccc1)C1=C(O)C(Cc2ccc(F)cc2)NC1=O (stereo not given) as well?
output: inactive

input: Here is the next molecule: Clc1ccc(Oc2ccc(Nc3ncnc4onc(-c5ccccc5)c34)cc2)c(Cl)c1
output: inactive

input: CCOc1ccc(-c2nonc2NC(=O)c2cccc(C)c2)cc1OCC ?
output: inactive

input: OC(CNC1CCCCC1)Cn1c2ccc(I)cc2c2cc(I)ccc21 (stereo not given) ?
output: inactive

input: Another: COc1cc2nc(-c3cnc(N(C)C)nc3)nc(NC3CCN(Cc4ccccc4)CC3)c2cc1OC
output: active

input: // query: COC(=O)/C(CCC=C(C)C)=C1\[C@@H](OC(C)=O)C[C@@]2(C)[C@H]1CC(=O)[C@H]1[C@@]3(C)CC[C@H](NCc4ccccc4)[C@@H](C)[C@@H]3CC[C@@]12C
output: inactive

input: Thanks! And COc1ccc(/C=C/C(=O)c2c(C)nc3ccccc3c2/C=C/c2ccccc2)c(OC)c1 ?
output: inactive

input: Same thing, different molecule: Cc1cc(Nc2ccc(OCc3ccccc3)cc2)nc2cc(O)ccc12
output: inactive

input: Can you handle O=C(NC1CCCCC1)C(c1cccs1)N(CCc1ccccc1)C(=O)c1ccco1 (stereo not given) next?
output: active

input: Input O=C(/C=C/c1ccc(F)cc1)c1ccc(Nc2nc(NCCO)nc(Nc3ccc(Cl)cc3)n2)cc1
output: inactive

input: Another: S=C1NC2(c3ccccc3)CCC(=S)N2c2ccccc21 (stereo not given)
output: inactive

input: And CCN(CCO)CCNc1ccc(C)c2sc3cc(Cl)ccc3c(=O)c12 ?
output: active

input: // same read-out, input: O=C(Nc1ccsc1C(=O)NC1CCCCC1)c1ccc(F)cc1
output: inactive

input: Also check O=c1c2cccc(F)c2sc2c(N3CCNCC3)nc3ccccc3c12
output: inactive

input: // repeat for COc1ccc(C(=O)Nc2ccc3nc(N4CCCCC4)cc(C)c3c2)cc1OC and report
output: inactive

input: Same thing, different molecule: O=C(/C=C/c1ccc(C(F)(F)F)cc1)c1ccc(Nc2nc(NCCO)nc(N3CCOCC3)n2)cc1
output: inactive

input: Next molecule up: Cc1ccc(Cn2c(N3CCC(C(=O)NCc4cccs4)CC3)nc3ccccc32)cc1
output: inactive

input: Would you kindly repeat that for Cc1ccc(Cc2cnc(NC(=O)CN3C(=O)/C(=C\c4ccccc4)SC3=S)s2)cc1 ?
output: inactive

input: Another: O=C(Nc1ccc(I)cc1F)c1cc(Br)ccc1O
output: active

input: And for CN=c1ccc2nc3ccc(N)cc3sc-2c1 ?
output: active

input: Next record, please: CCOC(=O)C(CC(=O)O)=C(C(=O)OCC)C(=O)OCC
output: inactive

input: Can you check COc1cc(/C=C/C(=O)c2c(C)nc3ccccc3c2/C=C/c2ccccc2)cc(OC)c1OC next?
output: inactive

input: Now the molecule Brc1ccc(Oc2ccc(Nc3ncnc4onc(-c5ccccc5)c34)cc2)cc1
output: inactive

input: Then COc1ccc(N(C)c2nc(N)nc3sc4c(c23)CCCC4)cc1 ?
output: inactive

input: Could you do the same for Clc1ccc(-c2nnc(COc3ccc(C4=NNC(c5ccco5)C4)cc3)o2)cc1 (stereo not given) , please?
output: inactive

input: Request: COc1ccc(C2C3=C(COC3=O)N(CCO)c3cc4c(cc32)OCCO4)cc1 (stereo not given)
output: inactive

input: Request: O=C1CCC(N2C(=O)c3cccc(NCCCCCCOc4ccc(Nc5nccc(Nc6ccccc6)n5)cc4)c3C2=O)C(=O)N1 (stereo not given)
output: inactive

input: Proceed to COc1cc(C(C)n2cc(-c3ccccc3)nn2)ccc1OC1CCCC1 (stereo not given)
output: inactive

input: What about this molecule? Cc1ccc2nc(NC(=O)CSC(=S)N3CCN(c4ccccc4)CC3)sc2c1
output: inactive

input: Quick one: O=C(CCc1nnc2sc(Cc3ccccc3Cl)nn12)c1nc2ncccc2[nH]1
output: inactive

input: What do we get for COc1ccc(C2=NN(/C=C3\SC(=O)NC3=Nc3ccc(F)cc3)C(c3ccc(F)cc3)C2)cc1 (stereo not given) ?
output: inactive

input: Can you handle CN(C)/C=C1\SC(=Nc2ccc(Cl)cc2)NC1=O next?
output: inactive

input: Now the molecule O=C(CN1C(=O)/C(=C\c2ccc(Cl)cc2)SC1=S)Nc1ncc(Cc2ccc(Cl)cc2)s1
output: inactive

input: Now try CCOC(=O)c1c(Cl)c2c(n1Cc1ccccc1)-c1oncc1CCC2 .
output: inactive

input: Try this molecule too: CCCCN1CCN(c2ccc3nc(-c4ccc5nc(-c6ccc(OC)c(OC)c6)[nH]c5c4)[nH]c3c2)CC1
output: active

input: What do we get for CNCCNc1nc2ccccc2c2c(=O)c3cc(F)ccc3sc12 ?
output: inactive

input: Further, for Nc1nc(N)c2c(n1)NC1(C=C(O)c3ccccc31)C1=C(N2)c2ccccc2C1=O (stereo not given) ?
output: inactive

Entry source: PubChem BioAssay (NCI)
